- target-system: Mcl-1 protein (UniProtKB Q07820) (Homo sapiens (Human), UniProt Q07820)
- Sequence (Q07820 whole entry): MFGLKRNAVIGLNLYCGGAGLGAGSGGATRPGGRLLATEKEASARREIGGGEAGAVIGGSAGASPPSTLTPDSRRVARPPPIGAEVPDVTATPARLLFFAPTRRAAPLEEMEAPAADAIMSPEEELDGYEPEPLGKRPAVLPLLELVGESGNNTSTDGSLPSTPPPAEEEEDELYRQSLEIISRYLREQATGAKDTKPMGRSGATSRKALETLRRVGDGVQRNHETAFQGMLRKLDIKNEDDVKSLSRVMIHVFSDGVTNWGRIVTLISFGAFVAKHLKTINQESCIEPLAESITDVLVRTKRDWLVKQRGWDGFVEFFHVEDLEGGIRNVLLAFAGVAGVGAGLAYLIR
- assay-name: Inhibition of Mcl-1 by the fluorescence polarisation assay (Example A, Method A)
- measurement-context: fluorescence polarization assay
pKi: −log10 of the molar value.
readout-kind: pKi

In [3]: df
Out[3]:
                                   compound                             target_system  readout_number
0  O=C(O)[C@]1(Nc2cccc(Cl)c2)CC[C@@]2(CC1)c1ccccc1CC2[C@H]1C[C@@H]1COc1cccnc1 (single isomer, unassigned) [Example 113]  Mcl-1 protein (UniProtKB Q07820) (Homo sapiens (Human), UniProt Q07820)            4.65
1  O=C(O)[C@]1(Nc2cccc(Cl)c2)CC[C@@]2(CC1)c1ccccc1CC2CCCOc1ccncc1F (stereo partly shown)  Mcl-1 protein (UniProtKB Q07820) (Homo sapiens (Human), UniProt Q07820)            7.41
2  COc1cc2c(cc1OC)[C@]1(CC[C@@](Nc3cccc(Cl)c3)(C(=O)O)CC1)C(Br)=C2  Mcl-1 protein (UniProtKB Q07820) (Homo sapiens (Human), UniProt Q07820)            6.59
3  O=C(O)[C@]1(Nc2cccc(Cl)c2)CC[C@]2(CC1)C(Br)=Cc1cc(Cl)ccc12  Mcl-1 protein (UniProtKB Q07820) (Homo sapiens (Human), UniProt Q07820)            6.70
